Target: T1, mouse IL-17A (mouse, UniProt Q62386 26-158, limits assumed)
T1 construct: Purified recombinant protein in SPR; also called MuIL-17A; murine IL-17A
T1 sequence (looked up): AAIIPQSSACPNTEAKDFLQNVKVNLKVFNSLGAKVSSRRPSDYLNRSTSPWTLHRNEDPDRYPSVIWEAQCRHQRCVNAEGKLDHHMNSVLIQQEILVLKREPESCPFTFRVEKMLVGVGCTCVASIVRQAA
Experiment: SPR (Biacore 3000), antibody captured by anti-Fc, antigen in solution;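 also: purified recombinant IL-17 antigens flowed over captured antibodies in HBS-EP buffer, global Langmuir one-to-one fit of association and dissociation phases, KD derived from koff over kon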
A collection of binders and their measured koff
measurementLabel: koff (s⁻¹)

binder	readoutNumber
IL17-h5C5.15 (antibody, V domains shown, IgG; constant regions not specified; also called h5C5.15 (VH.1b-Vk.3a)) VH: EVQLVQSGAEVKKPGASVKVSCKASGYTFTDYEFHWVRQAPGQGLEWIGVIHPGNGGTAYNQNFRDRATLTADKSTSTAYMELSSLRSEDTAVYYCTRFLTYEGYFDYWGQGTLVTVSS VL: EIVMTQSPATLSVSPGERATLSCKASQSVSIDVGWFQQKPGQSPRLLIYHASNRYTGVPARFSGSGSGTDFTLTISSLQPEDFAVYFCQQDYSSPYTFGQGTKLEIKR	0.000557
IL17-h5C5.21 (antibody, V domains shown, IgG; constant regions not specified; also called h5C5.21 (VH.1b-Vk.3c)) VH: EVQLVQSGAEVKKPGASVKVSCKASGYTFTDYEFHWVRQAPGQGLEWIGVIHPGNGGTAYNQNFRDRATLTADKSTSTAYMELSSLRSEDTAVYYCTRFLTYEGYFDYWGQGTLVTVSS VL: NIVMTQSPATLSVSPGERATLSCKASQSVSIDVGWFQQKPGQSPRLLIYHASNRYTGVPARFSGSGSGTDFTLTISSLQPEDFAVYFCQQDYSSPYTFGQGTKLEIKR	0.000524
IL17-h5C5.18 (antibody, V domains shown, IgG; constant regions not specified; also called h5C5.18 (VH.1b-Vk.1c)) VH: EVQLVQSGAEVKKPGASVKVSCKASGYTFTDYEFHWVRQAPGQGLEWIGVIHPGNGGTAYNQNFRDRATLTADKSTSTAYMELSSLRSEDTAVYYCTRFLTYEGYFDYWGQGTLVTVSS VL: NIVMTQSPSSLSASVGDRVTITCKASQSVSIDVGWFQQKPGKSPKLLIYHASNRYTGVPSRFSGSGSGTDFTFTISSLQPEDFATYFCQQDYSSPYTFGQGTKLEIKR	0.0005
IL17-h5C5.9 (antibody, V domains shown, IgG; constant regions not specified; also called h5C5.9 (VH.1b-Vk.1a)) VH: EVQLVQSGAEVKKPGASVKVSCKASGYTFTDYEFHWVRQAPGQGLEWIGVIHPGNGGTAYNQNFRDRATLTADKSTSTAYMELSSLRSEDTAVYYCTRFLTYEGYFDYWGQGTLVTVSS VL: DIQMTQSPSSLSASVGDRVTITCKASQSVSIDVGWFQQKPGKSPKLLIYHASNRYTGVPSRFSGSGSGTDFTFTISSLQPEDFATYFCQQDYSSPYTFGQGTKLEIKR	0.000582
IL17-h10F7.11 (antibody, V domains shown, IgG; constant regions not specified; also called h10F7.11 (VH.1a-Vk.2a)) VH: EVQLVQSGAEVKKPGSSVKVSCKASGYTFTDYEIHWVRQAPGQGLEWIGVNDPESGGTFYNQKFDGRATLTADKSTSTAYMELSSLRSEDTAVYYCTRYYRYESFYGMDYWGQGTTVTVSS VL: EIVLTQSPDFQSVTPKEKVTITCSASSSISYIYWFQQKPDQSPKRWIYATFELASGVPSRFSGSGSGTDYTLTINSLEAEDAATYYCHQRSSYPWTFGQGTKLEIKR	0.000522
